Test: gradient 5% acetonitrile 3 min, to 50% in 2 min, to 85% in 15 min, held 3 min, 100 µL/min
Conditions: column: Zorbax Extend-C18 2.1 x 50 mm; eluents: water / acetonitrile, 0.1% formic acid
Respond with T for RP-LC retention time values of 800 s and above, F for values below.

Worked examples, 6 molecules total:
CCn1cc(CCNC(=O)Nc2ccccc2)c2cccnc21 = F
CCCn1nc2n(c1=O)CCN(Cc1ccc(C)c(C)c1)C2 = F
Fc1ccccc1-c1nc(-c2cn(-c3ccccc3)nn2)no1 = T
Cc1ccc(CCNC(=O)CN2C(=O)C3CCCCN3c3ccc(S(=O)(=O)N(C)C)cc32)cc1 (centres undefined) = T
CCOc1ccc(-c2[nH]nc3nc(-c4ccc(OC)cc4)cc(C(=O)O)c23)cc1 = F
CC(C)(C)NC(=O)c1ccc2c(c1)CCCN2S(=O)(=O)c1ccccc1 = T

Q: Decide: is the reported value of RP-LC retention time for CCS(=O)(=O)c1ccc(-c2ccc(NC(=O)c3cc(Cl)ccc3Cl)cc2)nn1 equal to or greater than 800 s?
Result: T

Q: Decide: is the reported value of RP-LC retention time for Cc1cc(C)n(CCNC(=O)Nc2cccs2)n1 equal to or greater than 800 s?
Result: F

Q: Decide: is the reported value of RP-LC retention time for COCCc1nncn1C1CCN(C(=O)c2cc(F)ccc2F)CC1 equal to or greater than 800 s?
Result: F

Q: Decide: is the reported value of RP-LC retention time for COc1ccc(OC)c(CNC(=O)C2CCCN(c3nnc4c(Cl)cccn34)C2)c1 (centres undefined) equal to or greater than 800 s?
Result: F

Q: Decide: is the reported value of RP-LC retention time for CCN1C(=O)C2(CCN(S(=O)(=O)c3ccc(Cl)c(C)c3)CC2)c2ccccc21 equal to or greater than 800 s?
Result: T

Q: Decide: is the reported value of RP-LC retention time for Cc1[nH]nc(-c2c(C)sc(C)c2S(=O)(=O)NCC(C)c2ccccc2)c1C (centres undefined) equal to or greater than 800 s?
Result: T

Q: Decide: is the reported value of RP-LC retention time for O=C(Cn1nc(Cc2cccnc2)c2ccccc2c1=O)NCC1COc2ccccc2O1 (centres undefined) equal to or greater than 800 s?
Result: F

---

Test: gradient 5% acetonitrile 3 min, to 50% in 2 min, to 85% in 15 min, held 3 min, 100 µL/min
Conditions: column: Zorbax Extend-C18 2.1 x 50 mm; eluents: water / acetonitrile, 0.1% formic acid
Reported RP-LC retention time values for a set of molecules
In your response, put the unit directly after the numeric value.

Example molecules with recorded RP-LC retention time:
O=C(/C=C/c1ccc(CN(CCO)CCc2c[nH]c3ccccc23)cc1)NO = 622 s
CCOc1cccc(C2c3[nH]c4ccccc4c3CCN2C(=O)COC)c1 (centres undefined) = 983 s
Cc1csc(-c2csc(S(=O)(=O)N3CCC(Cc4ccccc4)CC3)c2)n1 = 1270 s
COc1ccc(CNC(=O)CN2C(=O)C3CCCCN3c3ccc(S(=O)(=O)N(C)C)cc32)cc1 (centres undefined) = 887 s
CCOC(=O)c1c(C)c(C(=O)Nc2cc(Cl)ccc2OC)c(C)n1CC = 1180 s
O=C(Nc1nccs1)C1CCN(S(=O)(=O)c2cc(C(=O)N3CCOCC3)cs2)CC1 = 680 s
CCCC(=O)Nc1cnc(-c2ccccc2)nc1 = 815 s
CCc1nn2c(CNS(=O)(=O)c3ccccc3F)c(-c3ccccc3)nc2s1 = 907 s

Lab note: next molecule to report on.
# RP-LC retention time of CC1CN(c2nc(-c3ccc([N+](=O)[O-])cc3)nc3ccccc23)CC(C)O1 (centres undefined) = 1030 s

---

Reported RP-LC retention time values for a set of compounds
Assay: gradient 5% acetonitrile 3 min, to 50% in 2 min, to 85% in 15 min, held 3 min, 100 µL/min
Details: column: Zorbax Extend-C18 2.1 x 50 mm; eluents: water / acetonitrile, 0.1% formic acid
# output: bare number, implied unit s

COc1ccc(-c2nnc(Cc3nc(-c4ccccc4C)no3)o2)cc1 = 1010

# RP-LC retention time of COCCCN1C(=O)c2cc(-c3ccc(OC)cc3)nn2CC1(C)C(=O)NCc1ccccc1 (centres undefined) = 826

---

Assay: gradient 5% acetonitrile 3 min, to 50% in 2 min, to 85% in 15 min, held 3 min, 100 µL/min
Conditions: column: Zorbax Extend-C18 2.1 x 50 mm; eluents: water / acetonitrile, 0.1% formic acid
Respond with criterion met for RP-LC retention time values of 900 s and above, criterion not met for values below.

Worked examples, 5 compounds total:
Cc1cccc(-c2c3c(=O)n(C)c(=O)n(C)c3c3n2CCOC3c2c(C)n(C)c(=O)n(C)c2=O)c1 (stereo not given) = criterion not met
CCN(CC)CCOc1ccccc1/C=C/c1noc2ccccc12 = criterion not met
Cc1ccc(NS(=O)(=O)c2ccc3c(c2)C(=O)N(C)c2ncccc2O3)cc1C = criterion met
COC(=O)CNC(=O)N1CCN(c2nc3ccccc3n2Cc2ccccc2)CC1 = criterion not met
CCOc1ccc2nc(C(=O)NC(C)(C)C)cn2n1 = criterion not met

Q: Decide: is the reported value of RP-LC retention time for Cc1cnc(C(=O)N2CC(c3nc(CCOCC4CC4)no3)C2)cn1 equal to or greater than 900 s?
Result: criterion not met

Q: Decide: is the reported value of RP-LC retention time for Cc1noc(C)c1C(=O)N1CC(F)(F)C[C@H]1c1nc(C2CC2)no1 equal to or greater than 900 s?
Result: criterion not met

Q: Decide: is the reported value of RP-LC retention time for CS(=O)(=O)N1CCC(OC2CCN(C(=O)Nc3ccc(F)cc3)CC2)CC1 equal to or greater than 900 s?
Result: criterion not met

Q: Decide: is the reported value of RP-LC retention time for COc1cccc(NC(=O)Cn2nc3c(Oc4cccc(F)c4)nccn3c2=O)c1 equal to or greater than 900 s?
Result: criterion not met

Q: Decide: is the reported value of RP-LC retention time for Cc1cc(Cl)ccc1OCc1nc(-c2cccc(-c3ccn[nH]3)c2)no1 equal to or greater than 900 s?
Result: criterion met

---

Reported RP-LC retention time values for a set of compounds
Experiment: gradient 5% acetonitrile 3 min, to 50% in 2 min, to 85% in 15 min, held 3 min, 100 µL/min
Conditions: column: Zorbax Extend-C18 2.1 x 50 mm; eluents: water / acetonitrile, 0.1% formic acid
In your response, put the unit directly after the numeric value.

Example compounds with recorded RP-LC retention time:
Cc1ccc2[nH]cc(CCN3CC(C(=O)N4CCc5ccccc5C4)CC3=O)c2c1 (centres undefined) = 698 s
O=C(COc1ccccc1)Nc1nonc1NC(=O)COc1ccccc1 = 854 s
O=S(=O)(Nc1cccc(F)c1)c1ccccc1-c1nc(-c2ccccc2)no1 = 1170 s
COc1c(C)c2c(c(O)c1C/C=C(\C)CCC(=O)O)C(=O)OC2 = 800 s
COCCCNC(=O)N1CCCCCC1c1cccc(C)c1 (centres undefined) = 910 s
CCN1CCN(Cc2ccc(NC3=NS(=O)(=O)C(c4ccc(OC)cc4)=C3C)cc2)CC1 = 622 s

# RP-LC retention time of CCOC(=O)Nc1ccccc1NC(=O)OCC = 717 s

# RP-LC retention time of CC(C)Cc1cc(-c2nnc3sc(-c4ccc(N(C)C)cc4)nn23)n[nH]1 = 1060 s

# RP-LC retention time of Cc1ccc(C)c(N2CCN(C(=O)Cn3nc(C(=O)N4CCCC4)c4ccccc43)CC2)c1 = 1040 s

---

Test: gradient 5% acetonitrile 3 min, to 50% in 2 min, to 85% in 15 min, held 3 min, 100 µL/min
Settings: column: Zorbax Extend-C18 2.1 x 50 mm; eluents: water / acetonitrile, 0.1% formic acid
Please use yes (1) for RP-LC retention time under 800 s and no (0) for everything else, ties included.

Worked examples, 2 compounds total:
CCOc1ccc(CCNC(=O)CN2C(=O)CSc3cccn3-c3ccccc32)cc1OCC = no (0)
O=C(NCc1ccc(N2CCOCC2)cc1)c1cn2c(n1)COCC2 = yes (1)

Q: Find out if reported RP-LC retention time for Cc1ccc(NS(=O)(=O)c2cc3n(c2)CCN(C(C)C)C3=O)c(F)c1 is less than 800 s
Result: yes (1)

Q: Find out if reported RP-LC retention time for CN(C)C(=O)c1n[nH]c2c1CN(C(=O)c1ccccc1F)CC2 is less than 800 s
Result: yes (1)

Q: Find out if reported RP-LC retention time for O=C(NCC1(N2CCOCC2)CCOC1)Nc1ccc2c(c1)OCCO2 (stereo not given) is less than 800 s
Result: yes (1)

Q: Find out if reported RP-LC retention time for CC(C)OCCCNC(=O)Cn1cccc1-c1nc(-c2ccc(Cl)cc2)cs1 is less than 800 s
Result: no (0)

Q: Find out if reported RP-LC retention time for CCn1nccc1C(=O)Nc1c(-c2ccccc2)nc2sc(N3CCCCC3)nn12 is less than 800 s
Result: no (0)

Q: Find out if reported RP-LC retention time for CCCN1C(=O)c2cc(S(=O)(=O)Nc3ccc(F)c(F)c3)ccc2Oc2cccnc21 is less than 800 s
Result: no (0)

Q: Find out if reported RP-LC retention time for Cc1ccc(Cl)cc1NC(=O)Cn1nc(N2CCOCC2)c2ccccc2c1=O is less than 800 s
Result: no (0)
